test system: follicular melanocytes; test: Depigmentation of new hair after plucking (PTCA/eumelanin content of hair follicles); format: in vivo, C57BL/6J black mice; settings: Route: i.p.; 300 mg/kg daily for 14 days; hair harvested day 22
QUANTITY: PTCA Content (ng/mg)
Write the number in ng/mg without appending the unit.

Some molecules with known PTCA Content results, for comparison:
[[record]]
molecule = "NCCSc1ccc(O)cc1 [4-S-CAP, 4-S-cysteaminylphenol, reference compound]"
measurement_unit = "ng/mg"
reported_result = 146.1

[[record]]
molecule = "NCCCSc1ccc(O)cc1"
measurement_unit = "ng/mg"
reported_result = 956.7

[[record]]
molecule = "CC(N)CSc1ccc(O)cc1 (centres unmarked)"
measurement_unit = "ng/mg"
reported_result = 121.3

[[record]]
molecule = "CN(C)CCSc1ccc(O)cc1"
measurement_unit = "ng/mg"
reported_result = 1009.0


Switching to the query record.
Need PTCA Content of `CC(=O)NCCSc1ccc(O)cc1` , thanks.
26.0

* * *

assay: Acute toxicity / lethal dose and maximum tolerable dose; conditions: mouse, in vivo, ip
QUANTITY: LD50 (mg/kg)
Reply numerically in mg/kg, unit not repeated.

Look at this molecule and give its reported LD50. `CC(=O)NCCSc1ccc(O)cc1`
1400
